# maps each entry to its DC50
# system: GSPT1 (Homo sapiens, UniProt P15170+Q96SW2)
# Construct: host or cells: HEK293 LgBiT cell line
# Sequence (P15170 whole entry): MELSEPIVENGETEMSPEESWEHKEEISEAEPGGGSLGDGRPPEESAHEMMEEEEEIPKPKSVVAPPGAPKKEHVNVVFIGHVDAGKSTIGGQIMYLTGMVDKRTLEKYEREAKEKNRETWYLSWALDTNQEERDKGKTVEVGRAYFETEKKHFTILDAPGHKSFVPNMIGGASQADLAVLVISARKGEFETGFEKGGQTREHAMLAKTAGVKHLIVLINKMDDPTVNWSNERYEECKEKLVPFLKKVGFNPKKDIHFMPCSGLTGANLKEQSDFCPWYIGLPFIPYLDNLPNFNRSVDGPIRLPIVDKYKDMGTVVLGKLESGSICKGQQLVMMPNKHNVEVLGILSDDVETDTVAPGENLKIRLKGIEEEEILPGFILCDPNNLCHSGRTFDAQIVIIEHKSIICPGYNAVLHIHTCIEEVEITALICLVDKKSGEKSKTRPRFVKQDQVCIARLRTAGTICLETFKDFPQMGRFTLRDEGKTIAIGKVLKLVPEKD
# Sequence (Q96SW2 whole entry): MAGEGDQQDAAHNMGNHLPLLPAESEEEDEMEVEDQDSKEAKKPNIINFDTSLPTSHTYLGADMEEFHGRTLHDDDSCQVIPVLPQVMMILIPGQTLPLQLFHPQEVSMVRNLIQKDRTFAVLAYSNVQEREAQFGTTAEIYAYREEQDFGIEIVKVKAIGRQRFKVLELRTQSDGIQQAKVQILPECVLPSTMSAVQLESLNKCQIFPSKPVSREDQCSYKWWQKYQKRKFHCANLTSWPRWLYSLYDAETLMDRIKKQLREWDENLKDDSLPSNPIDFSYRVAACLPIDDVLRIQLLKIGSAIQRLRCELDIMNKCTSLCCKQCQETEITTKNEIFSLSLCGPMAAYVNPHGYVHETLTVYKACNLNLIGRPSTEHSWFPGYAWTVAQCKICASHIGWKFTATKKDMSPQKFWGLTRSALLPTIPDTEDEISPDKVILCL
# Sequence (Q16531 whole entry partner): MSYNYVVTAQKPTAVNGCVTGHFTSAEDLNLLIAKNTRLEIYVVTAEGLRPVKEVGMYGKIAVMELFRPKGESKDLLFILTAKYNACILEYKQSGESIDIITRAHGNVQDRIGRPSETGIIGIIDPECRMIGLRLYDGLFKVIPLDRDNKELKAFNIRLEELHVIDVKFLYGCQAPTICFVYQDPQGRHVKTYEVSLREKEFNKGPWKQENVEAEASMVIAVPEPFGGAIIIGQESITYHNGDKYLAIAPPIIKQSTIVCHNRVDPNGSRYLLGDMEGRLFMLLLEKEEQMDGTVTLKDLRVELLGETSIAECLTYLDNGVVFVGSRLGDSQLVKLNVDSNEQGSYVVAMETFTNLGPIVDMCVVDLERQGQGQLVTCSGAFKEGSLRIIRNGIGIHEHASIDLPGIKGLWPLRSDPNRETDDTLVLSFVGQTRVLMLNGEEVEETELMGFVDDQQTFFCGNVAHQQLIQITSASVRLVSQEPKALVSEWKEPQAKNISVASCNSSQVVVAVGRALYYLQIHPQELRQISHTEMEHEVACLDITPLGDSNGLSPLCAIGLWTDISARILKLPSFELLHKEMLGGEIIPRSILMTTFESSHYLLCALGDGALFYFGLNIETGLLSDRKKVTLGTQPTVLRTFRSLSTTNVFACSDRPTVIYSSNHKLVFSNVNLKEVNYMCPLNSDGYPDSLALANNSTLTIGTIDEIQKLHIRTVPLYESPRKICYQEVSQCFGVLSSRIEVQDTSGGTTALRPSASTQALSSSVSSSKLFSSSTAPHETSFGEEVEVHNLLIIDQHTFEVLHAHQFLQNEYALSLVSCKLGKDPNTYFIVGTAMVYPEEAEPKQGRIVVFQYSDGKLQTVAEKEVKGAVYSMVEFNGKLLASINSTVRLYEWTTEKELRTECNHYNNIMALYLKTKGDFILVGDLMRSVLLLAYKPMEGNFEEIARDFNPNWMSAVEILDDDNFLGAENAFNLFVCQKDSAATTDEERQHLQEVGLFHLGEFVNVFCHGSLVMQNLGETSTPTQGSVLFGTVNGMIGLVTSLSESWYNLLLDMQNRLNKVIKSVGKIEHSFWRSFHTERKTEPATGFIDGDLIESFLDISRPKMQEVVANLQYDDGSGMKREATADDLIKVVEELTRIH
# assay.name: GSPT1 HiBit degradation assay
# Type: cell-based
# experimental.context: Table 3A; HEK293 LgBiT cells expressing GSPT1_HiBiT, luminescence after 6 hours

>>> result("Cc1c(NC(=O)c2ccc(C3CC3)cc2F)cc(F)cc1-c1ncnc(N)c1OCCN(C)C(=O)/C=C/CN(C)CCOCCOCCOCCOCCOCCOCCOCCOCCOCCCCCc1cc(Cl)cc(NC(=O)NCc2ccc3c(c2)CN(C2CCC(=O)NC2=O)C3=O)c1 (centres unmarked)")
"0.25 to 5 µM"

Measured DC50, Cc1c(NC(=O)c2ccc(C3CC3)cc2F)cc(F)cc1-c1ncnc(N)c1OCCN(C)C(=O)/C=C/CN(C)CCOCCOCCOCCOCCOCCCCCc1cc(Cl)cc(NC(=O)NCc2ccc3c(c2)CN(C2CCC(=O)NC2=O)C3=O)c1 (centres unmarked) : < 0.25 µM

Measured DC50, Nc1ncnc2c1c(-c1ccc(Oc3ccccc3)cc1)nn2[C@@H]1CCCN(C(=O)/C=C/COCCOCCOCCOCCOCCOCCOCCOCCOCCOCCOCCCCCCCCc2cc(Cl)cc(NC(=O)NCc3ccc4c(c3)CN(C3CCC(=O)NC3=O)C4=O)c2)C1 (some centres unmarked) : 0.25 to 5 µM

Measured DC50, C=CC(=O)N1CCN(c2nc(=O)n(-c3c(C)cc(OCCOCCOCCOCCOCCOCCOCCOCCCCCc4cc(Cl)cc(NC(=O)NCc5ccc6c(c5)CN(C5CCC(=O)NC5=O)C6=O)c4)nc3C(C)C)c3nc(-c4c(O)cccc4F)c(F)cc23)[C@@H](C)C1 (some centres unmarked) : 0.25 to 5 µM

Measured DC50, CCC(=O)N1CCN(c2nc(OC[C@@H]3CCCN3CCOCCOCCOCCOCCOCCOCCOCCOCCOCCOCCOCCOCCOCCOCCCCCCCCc3cc(Cl)cc(NC(=O)NCc4ccc5c(c4)CN(C4CCC(=O)NC4=O)C5=O)c3)nc3c2CCN(c2cccc4cccc(Cl)c24)C3)CC1CC#N (some centres unmarked) : 0.25 to 5 µM

Measured DC50, C=C(F)C(=O)N1CCN(c2nc(OC[C@@H]3CCCN3CCCOCCOCCOCCOCCOCCCCCc3cc(Cl)cc(NC(=O)NCc4ccc5c(c4)CN(C4CCC(=O)NC4=O)C5=O)c3)nc3c2CCN(c2cccc4cccc(Cl)c24)C3)C[C@@H]1CC#N (some centres unmarked) : 0.25 to 5 µM

Measured DC50, C=C(F)C(=O)N1CCN(c2nc(OC[C@@H]3CCCN3CCCOCCOCCOCCOCCOCCOCCOCCCCCc3cccc(NC(=O)NCc4ccc5c(c4)CN(C4CCC(=O)NC4=O)C5=O)n3)nc3c2CCN(c2cccc4cccc(Cl)c24)C3)C[C@@H]1CC#N (some centres unmarked) : 5 to 10 µM

Measured DC50, C=C(F)C(=O)N1CCN(c2nc(OC[C@@H]3CCCN3CCCOCCOCCOCCOCCOCCOCCOCCOCCOCCOCCOCCCCCc3cccc(NC(=O)NCc4ccc5c(c4)CN(C4CCC(=O)NC4=O)C5=O)n3)nc3c2CCN(c2cccc4cccc(Cl)c24)C3)C[C@@H]1CC#N (some centres unmarked) : 0.25 to 5 µM

* * *

# system: GSPT1 (Homo sapiens, UniProt P15170+Q96SW2)
# Construct: host or cells: HEK293 LgBiT cell line
# assay.name: GSPT1 HiBit degradation assay
# Format: cell-based
# experimental.context: Table 3A; HEK293 LgBiT cells expressing GSPT1_HiBiT, luminescence after 6 hours
# maps each entry to its DC50

Examples from the recorded data:
>>> result("C=C(F)C(=O)N1CCN(c2nc(OC[C@@H]3C[C@@H](OCCOCCOCCOCCOCCCCCCCCc4cccc(NC(=O)NCc5ccc6c(c5)CN(C5CCC(=O)NC5=O)C6=O)c4)CN3C)nc3c2CCN(c2cccc4cccc(Cl)c24)C3)C[C@@H]1CC#N (stereo partly shown) [Compound I-99]")
"250 to 5000 nM"
>>> result("C=C(F)C(=O)N1CCN(c2nc(OC[C@@H]3CCCN3CCCOCCOCCOCCOCCOCCCCCc3ccc(Cl)cc3NC(=O)NCc3ccc4c(c3)CN(C3CCC(=O)NC3=O)C4=O)nc3c2CCN(c2cccc4cccc(Cl)c24)C3)C[C@@H]1CC#N (stereo partly shown) [Compound I-140]")
"250 to 5000 nM"
>>> result("Cc1c(NC(=O)c2ccc(C3CC3)cc2F)cc(F)cc1-c1ncnc(N)c1OCCN(C)C(=O)/C=C/CN(C)CCOCCOCCOCCOCCOCCOCCCCCCCCc1cc(Cl)cc(NC(=O)NCc2ccc3c(c2)CN(C2CCC(=O)NC2=O)C3=O)c1 (stereo not shown) [Compound I-97]")
"< 250 nM"
>>> result("C=C(F)C(=O)N1CCN(c2nc(OC[C@@H]3CCCN3CCCOCCOCCOCCOCCOCCOCCOCCOCCOCCOCCCCCCCCc3cc(Cl)cc(NC(=O)NCc4ccc5c(c4)CN(C4CCC(=O)NC4=O)C5=O)c3)nc3c2CCN(c2cccc4cccc(Cl)c24)C3)C[C@@H]1CC#N (stereo partly shown) [Compound I-80]")
"250 to 5000 nM"
>>> result("COc1cc(N2CCN(C(=O)COCCOCCOCCOCCOCCOCCOCCOCCOCCCCCc3cc(Cl)cc(NC(=O)NCc4ccc5c(c4)CN(C4CCC(=O)NC4=O)C5=O)c3)CC2)ccc1Nc1ncc(Cl)c(Nc2ccccc2P(C)(C)=O)n1 (stereo not shown) [Compound I-141]")
"250 to 5000 nM"

Measured DC50, CN(C/C=C/C(=O)N1CCN(c2nc(OC[C@@H]3CCCN3C)nc3c2CCN(c2cccc4cccc(Cl)c24)C3)C[C@@H]1CC#N)CCOCCOCCOCCOCCOCCOCCCCCCCCc1cc(Cl)cc(NC(=O)NCc2ccc3c(c2)CN(C2CCC(=O)NC2=O)C3=O)c1 (stereo partly shown) [Compound I-84] : < 250 nM

Measured DC50, Nc1ncnc2c1c(-c1ccc(Oc3ccccc3)cc1)nn2[C@@H]1CCCN(C(=O)/C=C/COCCOCCOCCOCCOCCCCCCCCc2cc(Cl)cc(NC(=O)NCc3ccc4c(c3)CN(C3CCC(=O)NC3=O)C4=O)c2)C1 (stereo partly shown) [Compound I-82] : < 250 nM

Measured DC50, COc1nn(C)cc1Nc1nc(N2CC(NC(=O)/C=C/CN(C)CCOCCOCCOCCOCCOCCCCCc3cc(Cl)cc(NC(=O)NCc4ccc5c(c4)CN(C4CCC(=O)NC4=O)C5=O)c3)[C@H](F)C2)nc2c1ncn2C (stereo partly shown) [Compound I-159] : 250 to 5000 nM

Measured DC50, Cc1c(NC(=O)c2ccc(C3CC3)cc2F)cc(F)cc1-c1ncnc(N)c1OCCN(C)C(=O)/C=C/CN(C)CCOCCOCCOCCOCCOCCOCCOCCCCCc1cc(Cl)cc(NC(=O)NCc2ccc3c(c2)CN(C2CCC(=O)NC2=O)C3=O)c1 (stereo not shown) [Compound I-113] : 250 to 5000 nM

Measured DC50, CN(C/C=C/C(=O)N1CCC[C@@H](n2nc(-c3ccc(Oc4ccccc4)cc3)c3c(N)ncnc32)C1)CCOCCOCCOCCOCCOCCOCCOCCOCCOCCOCCCCCCCCc1cc(Cl)cc(NC(=O)NCc2ccc3c(c2)CN(C2CCC(=O)NC2=O)C3=O)c1 (stereo partly shown) [Compound I-83] : 250 to 5000 nM

Measured DC50, Cc1ccc(NC(=O)NC(CCCCCOCCOCCOCCOCCOCCN(C)C/C=C/C(=O)N2CCN(c3nc(OC[C@@H]4CCCN4C)nc4c3CCN(c3cccc5cccc(Cl)c35)C4)C[C@@H]2CC#N)c2ccc3c(c2)CN(C2CCC(=O)NC2=O)C3=O)cc1Cl (stereo partly shown) [Compound I-114] : > 10000 nM

Measured DC50, COc1cc(N(C)CCN(C)C)c(NC(=O)/C=C/CN(C)CCOCCOCCOCCCCCc2cc(Cl)cc(NC(=O)NCc3ccc4c(c3)CN(C3CCC(=O)NC3=O)C4=O)c2)cc1Nc1nccc(-c2cn(C)c3ccccc23)n1 (stereo not shown) [Compound I-145] : 250 to 5000 nM

Measured DC50, C=CC(=O)Nc1cc(Nc2nccc(-c3cn(C)c4ccccc34)n2)c(OC)cc1N(C)CCN(C)CCOCCOCCOCCOCCOCCOCCOCCOCCOCCCCCc1cc(Cl)cc(NC(=O)NCc2ccc3c(c2)CN(C2CCC(=O)NC2=O)C3=O)c1 (stereo not shown) [Compound I-160] : 250 to 5000 nM

* * *

# system: GSPT1 (Homo sapiens, UniProt P15170+Q96SW2)
# Construct: host or cells: HEK293 LgBiT cell line
# assay.name: GSPT1 HiBit degradation assay
# Format: cell-based
# experimental.context: Table 3A; HEK293 LgBiT cells expressing GSPT1_HiBiT, luminescence after 6 hours
readout: DC50

Examples from the recorded data:
>>> result("Nc1ncnc2c1c(-c1ccc(Oc3ccccc3)cc1)nn2[C@@H]1CCCN(C(=O)/C=C/COCCOCCOCCOCCOCCOCCOCCCCCCCCc2cc(Cl)cc(NC(=O)NCc3ccc4c(c3)CN(C3CCC(=O)NC3=O)C4=O)c2)C1 (stereo partly shown)")
"< 0.25 µM"
>>> result("CN(C/C=C/C(=O)N1CCC[C@@H](n2nc(-c3ccc(Oc4ccccc4)cc3)c3c(N)ncnc32)C1)CCOCCOCCOCCOCCOCCOCCOCCCCCc1cc(Cl)cc(NC(=O)NCc2ccc3c(c2)CN(C2CCC(=O)NC2=O)C3=O)c1 (stereo partly shown)")
"0.25 to 5 µM"
>>> result("CN(C/C=C/C(=O)N1CCC[C@@H](n2nc(-c3ccc(Oc4ccccc4)cc3)c3c(N)ncnc32)C1)CCOCCOCCOCCOCCOCCCCCc1cc(Cl)cc(NC(=O)NCc2ccc3c(c2)CN(C2CCC(=O)NC2=O)C3=O)c1 (stereo partly shown)")
"0.25 to 5 µM"

Measured DC50, Cc1ccc(NC(=O)NC(CCCCCOCCOCCOCCN(C)C/C=C/C(=O)N2CCN(c3nc(OC[C@@H]4CCCN4C)nc4c3CCN(c3cccc5cccc(Cl)c35)C4)C[C@@H]2CC#N)c2ccc3c(c2)CN(C2CCC(=O)NC2=O)C3=O)cc1Cl (stereo partly shown) : 5 to 10 µM

Measured DC50, C=C(F)C(=O)N1CCN(c2nc(OC[C@@H]3CCCN3CCCOCCOCCOCCOCCOCCOCCOCCOCCOCCOCCOCCCCCc3ccc(Cl)cc3NC(=O)NCc3ccc4c(c3)CN(C3CCC(=O)NC3=O)C4=O)nc3c2CCN(c2cccc4cccc(Cl)c24)C3)C[C@@H]1CC#N (stereo partly shown) : 0.25 to 5 µM

Measured DC50, C=C(F)C(=O)N1CCN(c2nc(OC[C@@H]3CCCN3CCCOCCOCCOCCOCCOCCCCCc3cccc(NC(=O)NCc4ccc5c(c4)CN(C4CCC(=O)NC4=O)C5=O)n3)nc3c2CCN(c2cccc4cccc(Cl)c24)C3)C[C@@H]1CC#N (stereo partly shown) : > 10 µM
